B1: library; a variant is named by its letters at N, in order (parent)
chain: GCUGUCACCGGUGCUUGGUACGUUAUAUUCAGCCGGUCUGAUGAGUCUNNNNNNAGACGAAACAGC

# Variants of: B1
# EXPERIMENTAL_DETAILS: normalized RNA/DNA level with ligand (relative to sTRSVctl = 100) (log10 (% of sTRSVctl)); HEK293T overexpressing SLC46A1; ligand concentration (+) RNA-Seq: 6 mM; higher = less ribozyme self-cleavage, higher mRNA level
# RUN_CONDITIONS: with (6R,S)-folinic acid; ligand present: yes
Each item that follows carries a reported normalized RNA/DNA level with ligand (log10).
Output: the number by itself.

Example entries and their recorded answers appear below.
Can you look up the measured normalized RNA/DNA level with ligand (log10) of "UCACUG" for me?
2.02

// normalized RNA/DNA level with ligand (log10) lookup, key: "GCAACA"
2.05

Would you kindly share the measured normalized RNA/DNA level with ligand (log10) for "UUUUCC" ?
2

Next:
Report normalized RNA/DNA level with ligand (log10) for "CGUCAU" please.
2
